Cited source: PubChem BioAssay AID1159580

// values below are reported normalized growth
Assay: chemical genetic growth profiling, strain panel (AID 1159580);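 further: tested at 20 µM; growth read once vehicle control cultures reached saturation at 30 °C; 1 = growth at the plate median or of vehicle wells; lower values mean less growth of the strain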
Details: S. cerevisiae deletion strains, growth OD, locus YLR262C, strain YPT6 (second series), hits give low values
Out of some 5,500 compounds screened, about 2,000 (36%) were called active. Another 18% or so got no clear call; they are omitted. The list shows a part of the results.
Please reply with the number alone, leaving off any unit.

Answered cases to consult:
Molecule: Nc1nc(/C(=C/CC(=O)O)C(=O)N[C@@H]2C(=O)N3C(C(=O)O)=CCS[C@H]23)cs1
normalized growth: 1.03

Molecule: COc1cc(O)c2c(=O)cc(-c3ccc(OC)c(-c4c(O)cc(O)c5c(=O)cc(-c6ccc(O)cc6)oc45)c3)oc2c1
normalized growth: 1.04

Molecule: COc1cc2c(cc1OC)-c1c(oc3cc(O)cc(O)c3c1=O)CO2
normalized growth: 1.01

Molecule: NC[C@H]1O[C@H](OC2[C@@H](N)C[C@@H](N)[C@H](O[C@H]3O[C@H](CO)[C@@H](O)[C@H](N)[C@H]3O)[C@H]2O)[C@H](O)[C@@H](O)[C@@H]1O (some centres undefined)
normalized growth: 0.994

Molecule: O=C(O)c1ccccc1O
normalized growth: 0.957

Molecule: CN(C)C(=O)C(CCN1CCC(O)(c2ccc(Cl)cc2)CC1)(c1ccccc1)c1ccccc1
normalized growth: 1.03

Task item: Suppose we examine the molecule O=C(/C=C(\O)c1ccccc1)c1ccccc1O ; what normalized growth value has been reported?
Reply: 0.391

Task item: Suppose we examine the molecule COc1ccc(-c2cc(=O)c3c(O)cc(O)c(-c4cc(-c5cc(=O)c6c(O)cc(O)cc6o5)ccc4OC)c3o2)cc1 ; what normalized growth value has been reported?
Reply: 1.02

Task item: Suppose we examine the molecule NC(=O)c1ccccc1O ; what normalized growth value has been reported?
Reply: 0.947

* * *

Test: chemical genetic growth profiling, strain panel (AID 1159580)
Details: S. cerevisiae deletion strains, growth OD, locus YMR001C, strain CDC5
About 2,000 (36%) of roughly 5,500 compounds were called active. Not shown: some 18% with an inconclusive outcome. No stated cut-off is given here; in the data, active means normalized growth mostly below about 0.91 (no sharp cut-off); inconclusive means no clear call, values can overlap the other calls; inactive means mostly above about 0.92. Some of the results follow.
Parameter call: string, one of Yes for active, No for inactive

Completed entries (count: 5):
Compound: O=S(=O)(c1cc(Cl)ccc1Cl)N1CCc2ccccc2C1
Label: No
--
Compound: ONC(=Nc1ccccc1Cl)c1ccccc1Cl
Label: No
--
Compound: FC(F)(F)Sc1ccc(OCc2n[nH]c(=S)n2-c2ccccc2)cc1
Label: No
--
Compound: O=C(Nc1cc2ccccc2s1)N1CCN(Cc2c(F)cccc2Cl)CC1
Label: No
--
Compound: O=C(OCc1ccccc1Br)c1cc([N+](=O)[O-])cc([N+](=O)[O-])c1
Label: No

# ---- query compound ----
Task item: Tell me the recorded outcome of this test for COc1ccc(Br)c(C(=O)/C(C#N)=C/c2cccs2)c1 .
Reply: No

* * *

Test: chemical genetic growth profiling, strain panel (AID 1159580)
Settings: S. cerevisiae deletion strains, growth OD, locus YGL173C, strain kem1
The campaign covered roughly 5,500 compounds. About 2,000 (36%) were called active. Roughly 18% stayed inconclusive and do not appear here. No stated cut-off is given here; in the data, active means normalized growth mostly below about 0.91 (no sharp cut-off); inconclusive means no clear call, values can overlap the other calls; inactive means mostly above about 0.92. Some of the results follow.
Parameter call: string, one of active, inactive

Molecule: CN(C)CC[C@H](c1ccc(Cl)cc1)c1ccccn1
Label: inactive
--
Molecule: CC1CCCC(C)N1NC(=O)c1ccc(Cl)c(S(N)(=O)=O)c1 (configuration not stated)
Label: inactive
--
Molecule: C=CCSSSCC=C
Label: inactive

# ---- query molecule ----
Task item: Tell me the recorded outcome of this test for CC1=C2C(O)C(=O)OC3CC4C(C)(C)C(=O)C=C[C@]4(C)C(CC1)[C@]23C (some centres not stated) .
Reply: inactive

* * *

Test: chemical genetic growth profiling, strain panel (AID 1159580)
Conditions: S. cerevisiae deletion strains, growth OD, locus YLR357W, strain rsc2, hits give low values
Screen size: about 5,500 compounds; about 2,000 (36%) were called active. Inconclusive results (about 18%) are left out. The list shows a part of the results.
Measure name: normalized growth
Please reply with the number alone, leaving off any unit.

Task item: Suppose we examine the compound CSc1nc(NC(C)C)nc(NC(C)C)n1 ; what normalized growth value has been reported?
Reply: 0.923

Task item: Suppose we examine the compound C[C@H]1[C@H](C)CC[C@]2(C(=O)O)CC[C@]3(C)C(=CCC4[C@@]5(C)C[C@@H](O)[C@H](O)[C@@](C)(CO)C5CC[C@]43C)[C@H]12 (some centres undefined) ; what normalized growth value has been reported?
Reply: 1.05

Task item: Suppose we examine the compound CC(C)(C)NCC(O)COc1cccc2c1CCCC2=O (centres undefined) ; what normalized growth value has been reported?
Reply: 0.991

Task item: Suppose we examine the compound O=C(O)C1=CC(=C(c2ccc(O)c(C(=O)O)c2)c2ccc(O)c(C(=O)O)c2)C=CC1=O ; what normalized growth value has been reported?
Reply: 0.857

* * *

Experiment: chemical genetic growth profiling, strain panel (AID 1159580);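 further: tested at 20 µM; growth read once vehicle control cultures reached saturation at 30 °C; 1 = growth at the plate median or of vehicle wells; lower values mean less growth of the strain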
Settings: S. cerevisiae deletion strains, growth OD, locus YHR079C, strain IRE1, hits give low values
Among all 5,500 compounds or so, about 2,000 (36%) were called active. Inconclusive results (about 18%) are left out. The list shows a part of the results.
Measure name: normalized growth
Please reply with the number alone, leaving off any unit.

Molecule: NCC(O)CC(=O)O (stereo not given)
normalized growth: 1.03

Molecule: COC(=O)CC1C(C)(C)C(OC(C)=O)[C@@H]2[C@@H](OC(C)=O)[C@]34O[C@@]2(O)[C@]1(C)C3CC[C@]1(C)C4=CC(=O)O[C@H]1c1ccoc1 (stereo not given in full)
normalized growth: 1.04

Molecule: CCCc1nn(C)c2c(=O)[nH]c(-c3cc(S(=O)(=O)N4CCN(C)CC4)ccc3OCC)nc12
normalized growth: 1.05

Task item: Suppose we examine the molecule O=S(=O)(O)O ; what normalized growth value has been reported?
Reply: 1.06

Task item: Suppose we examine the molecule Cc1cc(-c2onc(C)c2C(=O)Sc2ccccc2)no1 ; what normalized growth value has been reported?
Reply: 0.704

* * *

Experiment: chemical genetic growth profiling, strain panel (AID 1159580);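 further: tested at 20 µM; growth read once vehicle control cultures reached saturation at 30 °C; 1 = growth at the plate median or of vehicle wells; lower values mean less growth of the strain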
Conditions: S. cerevisiae deletion strains, growth OD, locus YDL192W, strain arf1, hits give low values
In all, about 5,500 compounds went through this assay and about 2,000 (36%) were called active. Inconclusive results (about 18%) are left out. This is one part of the list.
// values below are reported normalized growth
Please reply with the number alone, leaving off any unit.

Molecule: C[C@@H]1CCC2[C@](C)(CO)[C@@H](O)CC[C@]2(C)[C@@]12CC[C@@](CO)(CCO)O2 (stereo partly specified)
normalized growth: 0.994

Molecule: NC(=O)c1ccc([N+](=O)[O-])cc1Cl
normalized growth: 0.982

Molecule: O=C(O)CN(CCN(CC(=O)O)CC(=O)O)CC(=O)O
normalized growth: 0.826

Molecule: CCOC(=O)CC(SP(=S)(OC)OC)C(=O)OCC (stereo unspecified)
normalized growth: 1

Task item: Suppose we examine the molecule CC(=O)N1CCN(c2ccc(OCC3CO[C@](Cn4ccnc4)(c4ccc(Cl)cc4Cl)O3)cc2)CC1 (stereo partly specified) ; what normalized growth value has been reported?
Reply: 0.156

Task item: Suppose we examine the molecule CC[C@@]1(O)C(=O)OCc2c1cc1n(c2=O)Cc2cc3cc(O)ccc3nc2-1 ; what normalized growth value has been reported?
Reply: 0.983

Task item: Suppose we examine the molecule CC(=O)OCC(=O)[C@@]1(O)CCC2C3C[C@H](C)C4=CC(=O)C=CC4(C)C3[C@@H](O)CC21C (stereo partly specified) ; what normalized growth value has been reported?
Reply: 1

Task item: Suppose we examine the molecule CC(C)Nc1nc(Cl)nc(NC(C)C)n1 ; what normalized growth value has been reported?
Reply: 1

Task item: Suppose we examine the molecule CC[C@@]1(O)C(=O)OCc2c1cc1n(c2=O)Cc2cc3ccccc3nc2-1 ; what normalized growth value has been reported?
Reply: 0.838

Task item: Suppose we examine the molecule COC1=CC(=O)C=C(OC)C1=O ; what normalized growth value has been reported?
Reply: 0.995

Task item: Suppose we examine the molecule CSc1nc(NC(C)C)nc(NC(C)C)n1 ; what normalized growth value has been reported?
Reply: 1.01

* * *

Experiment: chemical genetic growth profiling, strain panel (AID 1159580);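 further: tested at 20 µM; growth read once vehicle control cultures reached saturation at 30 °C; 1 = growth at the plate median or of vehicle wells; lower values mean less growth of the strain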
Details: S. cerevisiae deletion strains, growth OD, locus YOR184W, strain ser1, hits give low values
Screen size: about 5,500 compounds; about 2,000 (36%) were called active. Inconclusive results (about 18%) are left out. This is one part of the list.
Measure name: normalized growth

Answered cases to consult:
Compound: C[C@H]1[C@H](C)CC[C@]2(C(=O)O)CC[C@]3(C)C(=CCC4[C@@]5(C)C[C@@H](O)[C@H](O)[C@@](C)(CO)C5[C@H](O)C[C@]43C)[C@H]12 (some centres undefined)
Value observed: 0.946 (inactive)
//
Compound: COC(=O)C[C@H]1C(C)(C)[C@@H](O)[C@@H]2CC3=C4CC(O)O[C@@H](c5ccoc5)[C@]4(C)CCC3[C@@]1(C)C2=O (some centres undefined)
Value observed: 1.03 (inactive)
//
Compound: CCOC(=O)CC(SP(=S)(OC)OC)C(=O)OCC (centres undefined)
Value observed: 1.02 (inactive)

Consider the additional compound presented here.
Task item: Suppose we examine the compound COC(=O)NC(=S)Nc1ccccc1NC(=S)NC(=O)OC ; what normalized growth value has been reported?
Reply: 1.01 (inactive)
